Here the recorded microsomal CLint at 0.5 μM is given for each entry.
assay: Determination of the microsomal half-life, rat liver microsomes; details: rat, liver microsomes, pH 7.4
Counter-ions that a name gives are not always drawn.

So, O=C1c2c(cccc2N2CCS(=O)(=O)CC2)CN1CCc1nc2ccccc2[nH]1 [Example 175] ? Its microsomal CLint at 0.5 μM was < 100 µL/min/mg

// field: microsomal CLint at 0.5 μM; key: CNCc1ccc(-c2cccc3c2C(=O)N(CCc2ccc4ccccc4n2)C3)cc1 [Example 194] ; value = 100 to 220 µL/min/mg

# molecule Cc1ccc2c(c1)nc(CCN1Cc3nccc(N4CCOCC4)c3C1=O)n2C [compound 415] ; its microsomal CLint at 0.5 μM = < 100 µL/min/mg

New cases:
Form field microsomal CLint at 0.5 μM, entry Cn1c(CCN2Cc3cccc(N4CCS(=O)(=O)CC4)c3C2=O)nc2ccccc21 [Example 184, trifluoroacetate] : < 100 µL/min/mg

###

Listed here are molecules together with their documented microsomal CLint at 0.5 μM.
test: Determination of the microsomal half-life, human liver microsomes; settings: human, liver microsomes, pH 7.4
Structures can show the parent of a compound that is named as a salt.

Below: 3 molecules and their reported microsomal CLint at 0.5 μM.
For record COc1ccc(N2CCOCC2)c2c1CN(CCc1cn3ccccc3n1)C2=O [Example 264, trifluoroacetate] the listed microsomal CLint at 0.5 μM is < 100 µL/min/mg

For this molecule ( O=C1c2c(cccc2OCc2ccncc2)CN1CCc1ccc2ccccc2n1 [Example 128] ), measured microsomal CLint at 0.5 μM is > 220 µL/min/mg

Record COc1ccc(-c2ccncc2)c2c1C(=O)N(CCc1nc3ccccc3s1)C2 [compound 396] . Reported microsomal CLint at 0.5 μM: < 100 µL/min/mg

More entries:
Value of microsomal CLint at 0.5 μM reported for the molecule O=C1c2c(cccc2N2CCS(=O)(=O)CC2)CN1CCc1cn2ccccc2n1 [Example 234] is < 100 µL/min/mg

Memo: O=C1Cc2ccc(-c3cccc4c3C(=O)N(CCc3ccc5ccccc5n3)C4)cc2N1 [Example 96] , reported microsomal CLint at 0.5 μM: 100 to 220 µL/min/mg

Data point: O=C1c2c(-c3cccnc3)ccnc2CN1CCc1nc2ccccc2s1 [compound 430, trifluoroacetate] ; microsomal CLint at 0.5 μM = < 100 µL/min/mg

The molecule identified as O=C(O)C1CN(c2ccnc3c2C(=O)N(CCc2ccc4ccccc4n2)C3)C1 [compound 446] registered its microsomal CLint at 0.5 μM at < 100 µL/min/mg

So, O=C1c2c(-c3ccncc3)ccnc2CN1CCc1nc2ccccc2o1 [compound 418] ? Its microsomal CLint at 0.5 μM was < 100 µL/min/mg

###

test: Determination of the microsomal half-life, human liver microsomes; conditions: human, liver microsomes, pH 7.4
microsomal CLint at 0.5 μM listing for selected compounds.

Query CN1CCN(c2ccnc3c2C(=O)N(CCc2ccc4ccccc4n2)C3)CC1 [Example 138] yields microsomal CLint at 0.5 μM of < 100 µL/min/mg

COc1ccc(-c2ccnn2C)c2c1C(=O)N(CCc1nc3ccccc3s1)C2 [compound 399] has a reported microsomal CLint at 0.5 μM of < 100 µL/min/mg

microsomal CLint at 0.5 μM in this record for O=C1c2c(-c3ccncc3)ccnc2CN1CCc1cn2ccccc2n1 [Example 369] : < 100 µL/min/mg

Notebook: CN1CCN(c2cccc3c2C(=O)N(CCc2nc4ccccn4n2)C3)CC1 [Example 233] , microsomal CLint at 0.5 μM read as < 100 µL/min/mg

Lookup result for Nc1ncc2cc(-c3cccc4c3C(=O)N(CCc3ccc5ccccc5n3)C4)ccc2n1 [Example 12] ; measured microsomal CLint at 0.5 μM: 100 to 220 µL/min/mg

Form: compound = O=C1c2c(N3CCC(C(F)F)C3)ccnc2CN1CCc1cn2ccccc2n1 (stereo not drawn) [compound 386] ; microsomal CLint at 0.5 μM = < 100 µL/min/mg

microsomal CLint at 0.5 μM recorded for this compound, O=C1c2nccc(-c3cncnc3)c2CN1CCc1ccc2ccccc2n1 [compound 467] , is < 100 µL/min/mg

The recorded microsomal CLint at 0.5 μM for entry O=C1c2c(NC3COC3)ccnc2CN1CCc1nc2ccccc2s1 [Example 376] equals < 100 µL/min/mg

---
// field: microsomal CLint at 0.5 μM; key: Cc1ccc2c(c1)nc(CCN1Cc3nccc(NC4COC4)c3C1=O)n2C [compound 416] ; value = < 100 µL/min/mg

Notebook: O=C1c2c(N3CCOCC3)ccnc2CN1CCc1ccc(-c2ccccc2)cn1 [compound 486] , microsomal CLint at 0.5 μM read as 100 to 220 µL/min/mg

Recorded result, O=C1c2c(cccc2NC2CCS(=O)(=O)C2)CN1CCc1ccc2ccccc2n1 (stereo not drawn) [Example 190] , microsomal CLint at 0.5 μM: 100 to 220 µL/min/mg

Please fill in: microsomal CLint at 0.5 μM reported for O=C1Cc2ccc(-c3ccnc4c3C(=O)N(CCc3ccc5ccccc5n3)C4)cc2N1 [Example 165] = < 100 µL/min/mg

Quick note, microsomal CLint at 0.5 μM for Cc1ccc(CCN2Cc3nccc(N4CCOCC4)c3C2=O)nc1 [compound 551] landed at < 100 µL/min/mg

Memo: COc1ccc(-c2cccc3c2C(=O)N(CCc2ccc4ccccc4n2)C3)cn1 [Example 54] , reported microsomal CLint at 0.5 μM: 100 to 220 µL/min/mg

Record O=C1c2c(-c3ccoc3)ccnc2CN1CCc1cn2cc(F)ccc2n1 [compound 526] . Reported microsomal CLint at 0.5 μM: < 100 µL/min/mg

Just so you know, measured microsomal CLint at 0.5 μM for O=C1c2c(OC3COC3)ccnc2CN1CCc1ccc2ccccc2n1 [compound 447] came out at 100 to 220 µL/min/mg

The recorded microsomal CLint at 0.5 μM for entry COc1ccc(-c2ccc(F)c3c2C(=O)N(CCc2cn4ccccc4n2)C3)cc1 [Example 380] equals 100 to 220 µL/min/mg

Record O=C(O)C1CCN(c2ccnc3c2C(=O)N(CCc2ccc4ccccc4n2)C3)CC1 [Example 366] , field microsomal CLint at 0.5 μM: < 100 µL/min/mg
